# System: S1P2 (Homo sapiens, UniProt O95136)
# Construct: Flag
# Sequence (O95136 whole entry, species assumed): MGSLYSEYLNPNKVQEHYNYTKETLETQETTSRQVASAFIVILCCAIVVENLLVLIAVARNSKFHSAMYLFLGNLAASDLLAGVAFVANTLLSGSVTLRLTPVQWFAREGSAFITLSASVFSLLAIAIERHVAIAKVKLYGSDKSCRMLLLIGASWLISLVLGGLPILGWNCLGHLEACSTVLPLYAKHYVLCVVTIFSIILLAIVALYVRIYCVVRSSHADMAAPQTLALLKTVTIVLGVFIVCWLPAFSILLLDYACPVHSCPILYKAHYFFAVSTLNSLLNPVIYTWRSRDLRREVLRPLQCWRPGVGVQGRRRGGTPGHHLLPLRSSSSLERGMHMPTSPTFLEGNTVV
# Assay Overview: GLISA RhoA activation - antagonist assay
# Test Parameters: CHO-S1P2-FL cells, 1 hour compound incubation, then for 5 min
pIC50: −log10 of the molar value.
Readout Type: pIC50

Use these answered entries as a reference point.
>>> print(df.to_string())
                                   compound  obs_value
0  Cc1cc(C(=O)Cn2cc(Cl)ccc2=O)c(C)n1Cc1ccccc1 [Example 45]     < 5.00
1  Cc1cc(C(=O)Cn2c(C)c(C#N)ccc2=O)c(C)n1Cc1ccccc1 [Example 44]     < 5.00

pIC50 value, target or system S1P2 (Homo sapiens, UniProt O95136), for CC(=O)Nc1ccc(=O)n(CC(=O)c2cc(C)n(Cc3ccccc3)c2C)c1 [Example 54] : < 5.00
